# half-life annotations
method-summary: in vitro
condition-label: rat, liver microsomes

{"columns": ["compound", "result-units", "value-operator", "half-life"],
 "data": [
  ["CC(=O)N1CCc2c(C)c3c(n2-c2ccc(C(N)=O)c(c2)N[C@@H](C)CC1)CC(C)(C)CC3=O", "min", "=", 9],
  ["Cc1c2c(n3c1CC[C@H](C)N[C@H](C)CNc1cc-3ccc1C(N)=O)CC(C)(C)CC2=O", "min", "=", 7],
  ["Cc1c2c(n3c1CCCNCCNc1cc-3ccc1C(N)=O)CC(C)(C)CC2=O", "min", ">", 30],
  ["Cc1c2c(n3c1CCC(C)NCCNc1cc-3ccc1C(N)=O)CC(C)(C)CC2=O (stereo not given)", "min", "=", 26],
  ["Cc1c2c(n3c1CNCCC[C@H](C)Nc1cc-3ccc1C(N)=O)CC(C)(C)CC2=O", "min", "=", 7],
  ["Cc1c2c(n3c1CCNCC(C)CNc1cc-3ccc1C(N)=O)CC(C)(C)CC2=O (stereo not given)", "min", "=", 5],
  ["Cc1c2c(n3c1CCCNCC(C)(C)Nc1cc-3ccc1C(N)=O)CC(C)(C)CC2=O", "min", ">", 30],
  ["Cc1c2c(n3c1CCNCCOCCNc1cc-3ccc1C(N)=O)CC(C)(C)CC2=O", "min", "=", 28],
  ["Cc1c2c(n3c1CCNCCNc1cc-3ccc1C(N)=O)CC(C)(C)CC2=O", "min", "=", 15],
  ["Cc1c2c(n3c1CCCNCC(C)(C)CNc1cc-3ccc1C(N)=O)CC(C)(C)CC2=O", "min", "=", 3],
  ["Cc1c2c(n3c1CCNCC(O)CNc1cc-3ccc1C(N)=O)CC(C)(C)CC2=O (stereo not given)", "min", "=", 10],
  ["Cc1c2c(n3c1CCCNC(C)(C)CNc1cc-3ccc1C(N)=O)CC(C)(C)CC2=O", "min", "=", 15],
  ["Cc1c2c(n3c1CCCN(C)C[C@H](C)Nc1cc-3ccc1C(N)=O)CC(C)(C)CC2=O", "min", "=", 11],
  ["Cc1c2c(n3c1CC[C@@H](C)N[C@H](C)CNc1cc-3ccc1C(N)=O)CC(C)(C)CC2=O", "min", "=", 15],
  ["Cc1c2c(n3c1CNCCCCNc1cc-3ccc1C(N)=O)CC(C)(C)CC2=O", "min", "=", 18]
]}

The values you see were collected from ChEMBL document CHEMBL1759983.
